- Test system: 565726-208-R1-J5-PDC complex spheroids, growth inhibition;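 also: spheroids exposed to compounds for seven days before readout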
- Procedure details: Anticancer human tumor 565726-208-R1-J5-PDC patient-derived pancreatic adenocarcinoma cell line growth inhibition [RAS]
- Settings: curve of first compound; second compound 10 µM
Values of IC50 strictly less than 30 nM map to T, and values of at least 30 nM map to F.

[
  {
    "Molecule": "O=C(c1ccc(F)c(F)c1Nc1ccc(I)cc1F)N1CC(O)([C@@H]2CCCCN2)C1 + C#Cc1c(F)ccc2cc(O)cc(-c3ncc4c(N5CC6CCC(C5)N6)nc(OCC56CCCN5CC(F)C6)nc4c3F)c12",
    "Subject of test": "565726-208-R1-J5-PDC complex spheroids, growth inhibition",
    "Label value": "T"
  },
  {
    "Molecule": "CCC(CC)c1cc(NC2CCC(N)C2)n2nccc2n1 (configuration not stated) + C#Cc1c(F)ccc2cc(O)cc(-c3ncc4c(N5CC6CCC(C5)N6)nc(OCC56CCCN5CC(F)C6)nc4c3F)c12",
    "Subject of test": "565726-208-R1-J5-PDC complex spheroids, growth inhibition",
    "Label value": "F"
  },
  {
    "Molecule": "C[C@@H](NC(=O)c1ncnc(N)c1Cl)c1ncc(C(=O)Nc2cc(C(F)(F)F)c(Cl)cn2)s1 + C#Cc1c(F)ccc2cc(O)cc(-c3ncc4c(N5CC6CCC(C5)N6)nc(OCC56CCCN5CC(F)C6)nc4c3F)c12",
    "Subject of test": "565726-208-R1-J5-PDC complex spheroids, growth inhibition",
    "Label value": "F"
  },
  {
    "Molecule": "C=CC(=O)Nc1cc(Nc2nccc(-c3cn(C)c4ccccc34)n2)c(OC)cc1N(C)CCN(C)C + C#Cc1c(F)ccc2cc(O)cc(-c3ncc4c(N5CC6CCC(C5)N6)nc(OCC56CCCN5CC(F)C6)nc4c3F)c12",
    "Subject of test": "565726-208-R1-J5-PDC complex spheroids, growth inhibition",
    "Label value": "F"
  },
  {
    "Molecule": "CCc1c2c(nc3ccc(O)cc13)-c1cc3c(c(=O)n1C2)COC(=O)[C@]3(O)CC + C#Cc1c(F)ccc2cc(O)cc(-c3ncc4c(N5CC6CCC(C5)N6)nc(OCC56CCCN5CC(F)C6)nc4c3F)c12",
    "Subject of test": "565726-208-R1-J5-PDC complex spheroids, growth inhibition",
    "Label value": "T"
  },
  {
    "Molecule": "C=CC(=O)N1CCN(c2nc(OCC3CCCN3C)nc3c(F)c(-c4nc(N)cc(C)c4C(F)(F)F)c(Cl)cc23)C(C)C1 (configuration not stated) + C#Cc1c(F)ccc2cc(O)cc(-c3ncc4c(N5CC6CCC(C5)N6)nc(OCC56CCCN5CC(F)C6)nc4c3F)c12",
    "Subject of test": "565726-208-R1-J5-PDC complex spheroids, growth inhibition",
    "Label value": "F"
  },
  {
    "Molecule": "NC1c2ccccc2OC12CCN(c1cnc3c(N4CCCc5ncccc54)n[nH]c3n1)CC2 (configuration not stated) + C#Cc1c(F)ccc2cc(O)cc(-c3ncc4c(N5CC6CCC(C5)N6)nc(OCC56CCCN5CC(F)C6)nc4c3F)c12",
    "Subject of test": "565726-208-R1-J5-PDC complex spheroids, growth inhibition",
    "Label value": "F"
  },
  {
    "Molecule": "CCN1CCN(Cc2ccc(Nc3ncc(F)c(-c4cc(F)c5nc(C)n(C(C)C)c5c4)n3)nc2)CC1 + C#Cc1c(F)ccc2cc(O)cc(-c3ncc4c(N5CC6CCC(C5)N6)nc(OCC56CCCN5CC(F)C6)nc4c3F)c12",
    "Subject of test": "565726-208-R1-J5-PDC complex spheroids, growth inhibition",
    "Label value": "F"
  },
  {
    "Molecule": "CC(C)n1nc(-c2ccc3oc(N)nc3c2)c2c(N)ncnc21 + C#Cc1c(F)ccc2cc(O)cc(-c3ncc4c(N5CC6CCC(C5)N6)nc(OCC56CCCN5CC(F)C6)nc4c3F)c12",
    "Subject of test": "565726-208-R1-J5-PDC complex spheroids, growth inhibition",
    "Label value": "T"
  },
  {
    "Molecule": "CC(C)NCC(C(=O)N1CCN(c2ncnc3c2C(C)CC3O)CC1)c1ccc(Cl)cc1 (configuration not stated) + C#Cc1c(F)ccc2cc(O)cc(-c3ncc4c(N5CC6CCC(C5)N6)nc(OCC56CCCN5CC(F)C6)nc4c3F)c12",
    "Subject of test": "565726-208-R1-J5-PDC complex spheroids, growth inhibition",
    "Label value": "F"
  },
  {
    "Molecule": "Cc1nc(N2CCC3(CC2)COC(C)C3N)c(CO)nc1Sc1ccnc(N)c1Cl (configuration not stated) + C#Cc1c(F)ccc2cc(O)cc(-c3ncc4c(N5CC6CCC(C5)N6)nc(OCC56CCCN5CC(F)C6)nc4c3F)c12",
    "Subject of test": "565726-208-R1-J5-PDC complex spheroids, growth inhibition",
    "Label value": "F"
  }
]

Source: PubChem BioAssay AID2060899
